- assayExplanation: Metabolic stability in human hepatic microsome
- Type: in vitro ADME
- recordedConditions: microsomes, pH 7.4; human hepatic microsome, NADPH(+); read-out: CL NADPH(+)
Starred links: 1 amine or outer side, 2 acyl side, 3 side chain; linkers in the order of their positions; H or OH if unused. Positions of bridges follow the written chain, without caps; N, C: chain ends. Non-standard residues stand in square brackets, D forms with d. Residues, ends and D or L forms follow the SMILES beside them. *: point of attachment. Phe(4-CF3) = N[C@@H](Cc1ccc(C(F)(F)F)cc1)C(=O)O; NMePhe(3-Cl) = CN[C@@H](Cc1cccc(Cl)c1)C(=O)O; NMeF = CN[C@@H](Cc1ccccc1)C(=O)O; NMeI = CC[C@H](C)[C@H](NC)C(=O)O; NMeβAla = CN(CCC(=O)[*:2])[*:1]; NMeL = CN[C@@H](CC(C)C)C(=O)O; NMeV = CN[C@H](C(=O)O)C(C)C; NMeA = CN[C@@H](C)C(=O)O; Piperidide = C1CCN(*)CC1; β3hA = C[C@H](N)CC(=O)O; Sar = CNCC(=O)O; tBu = CC(C)(C)*
resultType: microsomal CLint at 1 uM (µL/min/mg)
One number for each entry, in µL/min/mg.

Answer with reported microsomal CLint at 1 uM of CC(C)C[C@@H]1NC(=O)[C@H](C)NC(=O)C[C@H](C)NC(=O)[C@H](C(C)C)N(C)C(=O)[C@H](CC(C)C)N(C)C(=O)[C@H]([C@@H](C)O)NC(=O)[C@H](Cc2ccc(C(F)(F)F)cc2)NC(=O)[C@H](C)N(C)C(=O)CNC(=O)[C@H](CC(C)C)N(C)C(=O)[C@H](C)N(C)C1=O [DP-829] (cyclo(AL[NMeA][NMeL]G[NMeA][Phe(4-CF3)]T[NMeL][NMeV][β3hA]))
65

Consider the following items and state reported microsomal CLint at 1 uM for each.
1. CC[C@H](C)[C@H](NC(=O)[C@H](Cc1ccccc1)N(C)C(=O)[C@H](CC(C)C)N(C)C(=O)[C@@H](NC(=O)[C@@H]1CC(=O)N(C)[C@@H](C)C(=O)N[C@@H]([C@@H](C)CC)C(=O)N(C)[C@@H](CC(C)C)C(=O)N[C@@H]([C@@H](C)O)C(=O)N[C@@H](CC(C)C)C(=O)N(C)[C@@H](Cc2cccc(Cl)c2)C(=O)N1)C(C)C)C(=O)N1CCCCC1 [DP-920] ([NMeA]I[NMeL]TL[NMePhe(3-Cl)]DV[NMeL][NMeF]I-Piperidide; lactam N-7)
2. CC[C@H](C)[C@H]1C(=O)N[C@@H](CC(C)C)C(=O)N(C)[C@@H](CC(C)C)C(=O)N[C@H](C(=O)N2CCCCC2)CC(=O)N(C)CC(=O)N(C)[C@@H](CC(C)C)C(=O)N[C@@H]([C@@H](C)O)C(=O)N(C)[C@@H](C)C(=O)N[C@@H](C)C(=O)N(C)[C@@H](Cc2ccccc2)C(=O)N(C)[C@@H](Cc2ccccc2)C(=O)N1C [DP-247] ([Sar][NMeL]T[NMeA]A[NMeF][NMeF][NMeI]L[NMeL]D-Piperidide; lactam N-11)
3. CC(C)C[C@@H]1NC(=O)[C@H](C)NC(=O)C[C@H](C)NC(=O)[C@H](C(C)C)N(C)C(=O)[C@H](Cc2ccc(C(F)(F)F)cc2)NC(=O)[C@H](CC(C)C)N(C)C(=O)[C@H]([C@@H](C)O)NC(=O)[C@H](Cc2ccc(C(F)(F)F)cc2)NC(=O)[C@H](C)N(C)C(=O)CNC(=O)[C@H](CC(C)C)N(C)C(=O)[C@H](C)N(C)C1=O [DP-814] (cyclo(AL[NMeA][NMeL]G[NMeA][Phe(4-CF3)]T[NMeL][Phe(4-CF3)][NMeV][β3hA]))
4. CC(C)C[C@@H]1NC(=O)[C@H](CC(C)C)N(C)C(=O)[C@H](COC(C)(C)C)NC(=O)[C@H](Cc2ccccc2)N(C)C(=O)[C@H](C)N(C)C(=O)C[C@@H](C(=O)N2CCCCC2)NC(=O)[C@H](CC(C)C)N(C)C(=O)[C@H]([C@@H](C)O)NC1=O [DP-698] ([NMeA][NMeF]S(tBu)[NMeL]LT[NMeL]D-Piperidide; lactam N-8)
5. CC[C@H](C)[C@@H]1NC(=O)[C@H](C)N(C)C(=O)[C@H]([C@@H](C)O)NC(=O)[C@H](C(C)C)N(C)C(=O)[C@H](CC(C)C)NC(=O)[C@H](CC(C)C)N(C)C(=O)CN(C)C(=O)C[C@@H](C(=O)N2CCCCC2)NC(=O)[C@H](C)NC(=O)[C@H](Cc2ccccc2)NC(=O)[C@H](Cc2ccccc2)N(C)C1=O [DP-245] ([Sar][NMeL]L[NMeV]T[NMeA]I[NMeF]FAD-Piperidide; lactam N-11)
6. CC[C@H](C)[C@@H]1NC(=O)[C@H](Cc2ccccc2)NC(=O)[C@H](C(C)C)N(C)C(=O)CN(C)C(=O)C[C@@H](C(=O)N2CCCCC2)NC(=O)[C@H]([C@@H](C)O)NC(=O)[C@H](CC(C)C)N(C)C(=O)[C@H](Cc2ccccc2)NC(=O)[C@H](CC(C)C)N(C)C(=O)CNC(=O)[C@H](CC(C)C)NC(=O)[C@H](C)N(C)C1=O [DP-137] ([Sar][NMeV]FI[NMeA]LG[NMeL]F[NMeL]TD-Piperidide; lactam N-12)

[27, 48, 22, 142, 71, 86]

Consider the following items and state reported microsomal CLint at 1 uM for each.
1. CC[C@H](C)[C@@H]1NC(=O)[C@H](CC(C)C)NC(=O)[C@H](C(C)C)NC(=O)[C@H](CC(C)C)N(C)C(=O)[C@H](CC(C)C)NC(=O)[C@H](Cc2ccccc2)NC(=O)[C@H]([C@@H](C)O)NC(=O)[C@H](C)N(C)C(=O)[C@H](CC(C)C)NC(=O)[C@H](C)N(C)C(=O)C[C@@H](C(=O)N2CCCCC2)NC1=O [DP-478] ([NMeA]L[NMeA]TFL[NMeL]VLID-Piperidide; lactam N-11)
2. CC(C)C[C@@H]1NC(=O)CCN(C)C(=O)C[C@@H](C(=O)N2CCCCC2)NC(=O)[C@H](Cc2ccccc2)N(C)C(=O)CNC(=O)[C@H]([C@@H](C)O)NC(=O)[C@H](Cc2ccccc2)NC(=O)[C@H](CC(C)C)N(C)C(=O)[C@H](CC(C)C)NC(=O)[C@H](Cc2ccccc2)NC1=O [DP-117] ([NMeβAla]LFL[NMeL]FTG[NMeF]D-Piperidide; lactam N-10)
3. CC(C)C[C@H]1C(=O)N(C)[C@@H](C)C(=O)N[C@@H]([C@@H](C)O)C(=O)N(C)[C@@H](C)C(=O)N(C)[C@@H](C(C)C)C(=O)N[C@@H](COC(C)(C)C)C(=O)N[C@H](C(=O)N2CCCCC2)CC(=O)N(C)CCC(=O)N(C)[C@@H](Cc2ccccc2)C(=O)N[C@@H](C)C(=O)N(C)[C@@H](C)C(=O)N[C@@H](Cc2ccccc2)C(=O)N1C [DP-465] ([NMeβAla][NMeF]A[NMeA]F[NMeL][NMeA]T[NMeA][NMeV]S(tBu)D-Piperidide; lactam N-12)

[50, 194, 23]
